Listed below: stoichiometry N values for each entry.
# subjectOfTest: the molecule itself
# assayMethodText: SEC

protein | stoichiometry N
DHO domain of human CAD, variant R1475Q (domain or fragment, UniProt P27708 1456-1846, looked up) MTSQKLVRLPGLIDVHVHLQEPGGTHKEDFASGTAAALAGGITMVCAMPNTRPPIIDAPALALAQKLAEAGARCDFALFLGASSENAGTLGTVAGSAAGLKLYLNETFSELRLDSVVQWMEHFETWPSHLPIVAHAEQQTVAAVLMVAQLTQRSVHICHVARKEEILLIKAAKARGLPVTCEVAPHHLFLSHDDLERLGPGKGEVRPELGSRQDVEALWENMAVIDCFASDHAPHTLEEKCGSRPPPGFPGLETMLPLLLTAVSEGRLSLDDLLQRLHHNPRRIFHLPPQEDTYVEVDLEHEWTIPSHMPFSKAHWTPFEGQKVKGTVRRVVLRGEVAYIDGQVLVPPGYGQDVRKWPQGAVPQLPPSAPATSEMTTTPERPRRGIPGLPD | 2
dihydroorotase (DHO) domain of human CAD, wild type (domain or fragment, UniProt P27708 1456-1846, looked up, carboxylated lysine (KCX) at K1556) MTSQKLVRLPGLIDVHVHLREPGGTHKEDFASGTAAALAGGITMVCAMPNTRPPIIDAPALALAQKLAEAGARCDFALFLGASSENAGTLGTVAGSAAGLKLYLNETFSELRLDSVVQWMEHFETWPSHLPIVAHAEQQTVAAVLMVAQLTQRSVHICHVARKEEILLIKAAKARGLPVTCEVAPHHLFLSHDDLERLGPGKGEVRPELGSRQDVEALWENMAVIDCFASDHAPHTLEEKCGSRPPPGFPGLETMLPLLLTAVSEGRLSLDDLLQRLHHNPRRIFHLPPQEDTYVEVDLEHEWTIPSHMPFSKAHWTPFEGQKVKGTVRRVVLRGEVAYIDGQVLVPPGYGQDVRKWPQGAVPQLPPSAPATSEMTTTPERPRRGIPGLPD | 2
